Assay: Unbound fraction in po dosed human plasma
Format: ADME, organism-based
fraction unbound listing for selected compounds.

COMPOUND	fraction unbound
Nc1ncc2ncn(CCC(CO)CO)c2n1 [6-DEOXY PENCICLOVIR]	1
CC1=C(CC(=O)O)c2cc(F)ccc2/C1=C\c1ccc([S+](C)[O-])cc1 (stereo not drawn)	0.069
Nc1nnc(-c2cccc(Cl)c2Cl)c(N)n1 [LAMOTRIGINE]	0.45

---

Assay: Ratio of drug level in blood to plasma in po dosed human
Assay type: ADME, organism-based
Conditions: blood and plasma, read-out: Rblood_plasma
# Lookup of reported blood plasma ratio keyed by entry

COMPOUND	blood plasma ratio
CC1=C(CC(=O)O)c2cc(F)ccc2/C1=C\c1ccc([S+](C)[O-])cc1 (stereo not drawn)	1
Nc1ncc2ncn(CCC(CO)CO)c2n1	1.2
Nc1nnc(-c2cccc(Cl)c2Cl)c(N)n1	1
